Tested on: Blumeria graminis f. sp. tritici (Erysiphe graminis f. sp. tritici)
Assay: Blumeria graminis f. sp. tritici / wheat / leaf disc preventative (powdery mildew on wheat)
Format: in vivo
Details: foliar, wheat leaf segments, compared to untreated control
Source text: Example B4: Blumeria Graminis f. sp. Tritici (Erysiphe Graminis f. sp. Tritici)/Wheat/Leaf Disc Preventative (Powdery Mildew on Wheat) Wheat leaf segments cv. Kanzler are placed on agar in a multiwell plate (24-well format) and sprayed with the formulated test compound diluted in water. The leaf disks are inoculated by shaking powdery mildew infected plants above the test plates 1 day after application. […]
Property: pest or weed control at 200 ppm; scope: individual compounds

compound="Cc1sc(N(C#N)c2cc(F)nc(F)c2)nc1C(=O)NC1CCC1(C)C (centres unmarked)" target_desc="Blumeria graminis f. sp. tritici (Erysiphe graminis f. sp. tritici)" measured_result="≥ 80%"
compound="Cc1sc(N(C#N)c2cncc(F)c2)nc1C(=O)NC1CCC1(C)C (centres unmarked)" target_desc="Blumeria graminis f. sp. tritici (Erysiphe graminis f. sp. tritici)" measured_result="≥ 80%"
compound=Cc1sc(N(C#N)c2cc(F)nc(F)c2)nc1C(=O)NCc1ccccc1 target_desc="Blumeria graminis f. sp. tritici (Erysiphe graminis f. sp. tritici)" measured_result="≥ 80%"
compound=CCCCCCNC(=O)c1nc(N(C#N)c2cc(F)nc(F)c2)sc1C target_desc="Blumeria graminis f. sp. tritici (Erysiphe graminis f. sp. tritici)" measured_result="≥ 80%"
compound="Cc1sc(N(C#N)c2cc(F)nc(F)c2)nc1C(=O)NC(C)c1ccccc1 (centres unmarked)" target_desc="Blumeria graminis f. sp. tritici (Erysiphe graminis f. sp. tritici)" measured_result="≥ 80%"
compound="Cc1sc(N(C#N)c2cc(F)cc(F)c2)nc1C(=O)NC1CCC1(C)C (centres unmarked)" target_desc="Blumeria graminis f. sp. tritici (Erysiphe graminis f. sp. tritici)" measured_result="≥ 80%"

Q) What measured pest or weed control at 200 ppm goes with Cc1sc(N(C#N)c2cc(F)nc(F)c2)nc1C(=O)NC1CCC12CCC2 (centres unmarked) ?
A) ≥ 80%

Q) What measured pest or weed control at 200 ppm goes with Cc1sc(N(C#N)c2cc(F)nc(F)c2)nc1C(=O)NC1CCC12Cc1ccccc1C2 (centres unmarked) ?
A) ≥ 80%

Q) What measured pest or weed control at 200 ppm goes with Cc1sc(N(C#N)c2cc(F)nc(F)c2)nc1C(=O)NC1CCC12CCCC2 (centres unmarked) ?
A) ≥ 80%

Q) What measured pest or weed control at 200 ppm goes with "Cc1sc(N(C#N)c2cc(F)nc(F)c2)nc1C(=O)NCC1(CC2CC2)CC1" ?
A) ≥ 80%

Q) What measured pest or weed control at 200 ppm goes with "Cc1sc(N(C#N)c2cc(F)nc(F)c2)nc1C(=O)NC1(C)CCCC1" ?
A) ≥ 80%
